assay_method_text: Clearance in nude mouse
Format: ADME, organism-based
conditions_used: in vivo
value_kind: clearance (mL/min/kg)

> print(dat)
                            compound.string  value.kind  units.text  test.value
1  O=c1[nH]nc2cc(CO)c3ccc(-c4ccc[nH]4)cc3n12   clearance   mL/min/kg          33

====

assay_method_text: Half life in nude mouse
Assay type: ADME, organism-based
conditions_used: in vivo
value_kind: half-life (h)

> print(dat)
                            compound.string  test.value
1  O=c1[nH]nc2cc(CO)c3ccc(-c4ccc[nH]4)cc3n12         1.8
